- assayed target: T1, Human OSCAR (osteoclast-associated receptor), full length, on cells (human)
- T1 chain: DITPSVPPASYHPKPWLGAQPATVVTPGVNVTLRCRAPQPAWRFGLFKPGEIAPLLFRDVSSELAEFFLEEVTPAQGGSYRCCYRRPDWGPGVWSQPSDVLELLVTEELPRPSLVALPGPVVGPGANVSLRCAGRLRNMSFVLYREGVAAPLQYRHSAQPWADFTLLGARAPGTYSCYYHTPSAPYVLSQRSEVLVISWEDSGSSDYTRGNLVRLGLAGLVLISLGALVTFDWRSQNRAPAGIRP
- run description: cell-based or functional assay
Each record here notes measured IC50 (IL-8), ColI-induced IL-8 release from moDC, Donor 4.
Answer with the value and then the unit.

3F7A9 (antibody, V domains shown, Mouse anti-human OSCAR mAb (its isotype control is mIgG1); The heavy chain entry covers only VH-CH1 and the start of the hinge; also called 3F7A9-1) VH: EIQLQQSGPELVKPGASVKVSCKASGYVFTSYNMYWVKQSHGKSLEWIGYIDPYNGGTRYNQKFKGKATLTVDKSSSTAYMHLNSLTSEDSAVYYCARLDYYGNFYWGQGTTLTVSS VL: DIKMTQSPSSMYASLGERVTITCKASQDINSFLSWLQQKPGKSPKTLIYRANRLVDGVPSRFSGSGSGQDYSLTISSLEYEDMGIYYCLQYDDFPYTFGGGTKLEIKR
60 pM

# input for lookup
Lab note: measured IC50 (IL-8), ColI-induced IL-8 release from moDC, Donor 4 of 7F1A1 (antibody, V domains shown, Mouse anti-human OSCAR mAb; The heavy chain entry covers only VH-CH1 and the start of the hinge) VH: QVQLQQSGAELVRPGTSVKVSCKASGYAFTNYMIEWVKKRPGQGLEWIGVINPGSGGTNYNEKFENKATLTADKSSSTAYMQLSSLTSDDSAVYFCARSLDFDGAWFAYWGQGTLVTVSA VL: DIQMTQSPASLSVSVGETVTITCRASEKIYSNLAWYQQKQGKSPQLLVYAATNLADGVPSRFSGSGSGTQFSLKINSLQPEDFGSYYCQHFWGIPWTFGGGTKLEIKR was 30 pM
